# Target or test system: KRAS (aa 1-169) G12C, C51S, C80L, C118S (Homo sapiens, UniProt P01116, C118S/C51S/C80L/G12C)
# Construct: The KRAS (aa 1-169) G12C, C51S, C80L, C118S with a His-tag
# Sequence (P01116 1-169 isoform P01116-2 G12C/C51S/C80L/C118S): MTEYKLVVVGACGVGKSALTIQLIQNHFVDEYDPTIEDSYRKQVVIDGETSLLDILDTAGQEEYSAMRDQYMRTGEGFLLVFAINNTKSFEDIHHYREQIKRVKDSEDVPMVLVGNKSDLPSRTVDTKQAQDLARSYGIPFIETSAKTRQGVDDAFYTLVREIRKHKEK
# Assay text: KRAS G12C SOS1-mediated nucleotide exchange / GST-cRaf RBD binding FRET assay
# Condition label: GDP-loaded KRAS G12C pre-incubated with compound at 24° C. for 3 hrs; SOS1, GTPγS and GST-cRaf RBD added; FRET 665 nm/620 nm
pIC50: −log10 of the molar value.
Is pIC50 at least 6? Then Condition met. If not, Condition not met.

Consider the following illustrative entries.
{"Compound": "C=CC(=O)N1CCN(c2nc(OC[C@@H]3CCCN3C)nc3c2CN(C(=O)c2cc(O)ccc2F)C3)C[C@@H]1CC#N [Example 46]", "Class": "Condition met"}
{"Compound": "C=CC(=O)N1CCN(c2nc(OC[C@@H]3CCCN3C)nc3c2CN(C(=O)c2cc(N)cc4ccccc24)C3)C[C@@H]1CC#N [Example 50]", "Class": "Condition met"}
{"Compound": "C=CC(=O)N1CCN(c2nc(OC[C@@H]3CCCN3C)nc3c2CN(C(=O)c2cccc4cccc(C)c24)C3)C[C@@H]1CC#N [Example 33]", "Class": "Condition met"}
{"Compound": "C=CC(=O)N1CCN(c2nc(OC[C@@H]3CCCN3C)nc3c2CN(Cc2cccc4ccccc24)C3)CC1 [Example 1]", "Class": "Condition not met"}
{"Compound": "C=CC(=O)N1CCN(c2nc(OC[C@@H]3CCCN3C)nc3c2CN(Cc2c(C)ccc4[nH]ncc24)C3)C[C@@H]1CC#N [Example 41]", "Class": "Condition met"}

Exercise: In plain terms: is recorded pIC50 at least 6 for C=CC(=O)N1CCN(c2nc(OC[C@@H]3CCCN3C)nc3c2CN(Cc2ccccc2)C3=O)C[C@@H]1CC#N [Example 44] ?
Key: Condition not met

Exercise: Same thing, different compound: C=CC(=O)N1CCN(c2nc(OC[C@@H]3CCCN3C)nc3c2CN(Cc2c(O)ccc4ccccc24)C3)C[C@@H]1CC#N [Example 42]
Key: Condition not met

Exercise: Same thing, different compound: C=CC(=O)N1CCN(c2nc(N3CC(N(C)C)C3)nc3c2CN(C2Cc4cccc5cccc2c45)C3)CC1CC#N (single isomer, unassigned) [Example 16 (P1)]
Key: Condition not met

Exercise: Same thing, different compound: C=CC(=O)N1CCN(c2nc(OC3CCN(C)CC3)nc3c2CN(C2Cc4cccc5cccc2c45)C3)CC1CC#N (single isomer, unassigned) [Example 17 (P1)]
Key: Condition not met

Exercise: Same thing, different compound: C=CC(=O)N1CCN(c2nc(OC[C@@H]3CCCN3C)nc3cn(Cc4cccc5ccccc45)cc23)C[C@@H]1CC#N [Example 7]
Key: Condition met

Exercise: Same thing, different compound: C=CC(=O)N1CCN(c2nc(OC[C@@H]3CCCN3C)nc3c2CN(C(=O)c2c(C)ccc4ccccc24)C3)C[C@@H]1CC#N [Example 34]
Key: Condition met

* * *

# Target or test system: KRAS (aa 1-169) G12C, C51S, C80L, C118S (Homo sapiens, UniProt P01116, C118S/C51S/C80L/G12C)
# Construct: The KRAS (aa 1-169) G12C, C51S, C80L, C118S with a His-tag
# Assay text: KRAS G12C SOS1-mediated nucleotide exchange / GST-cRaf RBD binding FRET assay
# Condition label: GDP-loaded KRAS G12C pre-incubated with compound at 24° C. for 3 hrs; SOS1, GTPγS and GST-cRaf RBD added; FRET 665 nm/620 nm
# key: entry, value: IC50
All answers are understood in nM, so give the number only.

Exercise: Returns the measured IC50 for the input compound. Input: C=CC(=O)N1CCN(c2nc(OC[C@@H]3CCCN3C)nc3c2CN(Cc2ccc4ccccc4c2)C3)C[C@@H]1CC#N [Example 20]
Key: 2880

Exercise: Same thing, different compound: C=CC(=O)N1CCN(c2nc(OC[C@@H]3CCCN3C)nc3c2CN(Cc2cc(O)ccc2F)C3)C[C@@H]1CC#N [Example 22]
Key: 9.63

Exercise: Same thing, different compound: C=CS(=O)(=O)N1CCN(c2nc(OC[C@@H]3CCCN3C)nc3c2CN(Cc2cccc4ccccc24)C3)CC1 [Example 3]
Key: 23700

Exercise: Same thing, different compound: C=CC(=O)N1CCN(c2nc(OC[C@@H]3CCCN3C)nc3c2CN(C2CCc4ccccc42)C3)C[C@@H]1CC#N (stereo partly shown) [Example 45]
Key: 12.6

Exercise: Same thing, different compound: C=CC(=O)N1CCN(c2nc(OC[C@@H]3CCCN3C)nc3c2CN(Cc2cc(O)cc4ccccc24)C3)C[C@@H]1CC#N [Example 25]
Key: 3.27

Exercise: Same thing, different compound: C=CC(=O)N1CCN(c2nc(OC[C@@H]3CCCN3C)nc3c2CN(c2ccc4ccccc4c2)C3)C[C@@H]1CC#N [Example 26]
Key: 1080

Exercise: Same thing, different compound: C=CC(=O)N1CCN(c2nc(OC[C@@H]3CCCN3C)nc3c2CN(c2cccc4c2CCC4)C3)C[C@@H]1CC#N [Example 27]
Key: 3720

Exercise: Same thing, different compound: C=CC(=O)N1CCN(c2nc(OC[C@@H]3CCCN3C)nc3c2CN(Cc2ccc(F)c4ccccc24)C3)C[C@@H]1CC#N [Example 10]
Key: 415

Exercise: Same thing, different compound: C=CC(=O)N1CCN(c2nc(OC[C@@H]3CCCN3C)nc3c2CN(C(=O)c2cccc4cccc(C5CC5)c24)C3)C[C@@H]1CC#N [Example 35]
Key: 256

Exercise: Same thing, different compound: C=CC(=O)N1CCN(c2nc(OC[C@@H]3CCCN3C)nc3c2CN(C(C)c2cccc4ccccc24)C3)C[C@@H]1CC#N (stereo partly shown) [Example 11]
Key: 170

Exercise: Same thing, different compound: C=CC(=O)N1CCN(c2nc(OC[C@@H]3C[C@@H](O)CN3C)nc3c2CN(C2Cc4cccc5cccc2c45)C3)C[C@@H]1CC#N (stereo partly shown) [Example 51]
Key: 16.1

Exercise: Same thing, different compound: C=CC(=O)N1CCN(c2nc(OC[C@@H]3CCCN3C)nc3c2CN(Cc2cccc(C)c2Cl)C3)C[C@@H]1CC#N [Example 53]
Key: 14.9

Exercise: Same thing, different compound: C=CC(=O)N1CCN(c2nc(OC[C@@H]3CCCN3C)nc3c2CN(C(=O)c2cccc4ccccc24)C3)C[C@@H]1CC#N [Example 32]
Key: 39.5

Exercise: Same thing, different compound: C=CC(=O)N1CCN(c2nc(OC[C@@H]3CCCN3C)nc3c2CN(C(=O)c2cccc(C)c2Cl)C3)C[C@@H]1CC#N [Example 37]
Key: 27.9

Exercise: Same thing, different compound: C=CC(=O)N1CCN(c2nc(OC[C@@H]3CCCN3C)nc3c2CN(Cc2cccc4cccc(C)c24)C3)C[C@@H]1CC#N [Example 8]
Key: 495

Exercise: Same thing, different compound: C=CC(=O)N1CCN(c2nc(N3CC(N(C)C)C3)nc3c2CN(C2Cc4cccc5cccc2c45)C3)CC1CC#N (single isomer, unassigned) [Example 16 (P2)]
Key: 256

Exercise: Same thing, different compound: C=CC(=O)N1CCN(c2nc(OC3CCN(C4CCOCC4)CC3)nc3c2CN(C2Cc4cccc5cccc2c45)C3)C[C@@H]1CC#N (stereo partly shown) [Example 12]
Key: 379

Exercise: Same thing, different compound: C=CC(=O)N1CCN(c2nc(OC[C@@H]3CCCN3C)nc3c2CN(Cc2cccc4cccc(O)c24)C3)C[C@@H]1CC#N [Example 24]
Key: 101

Exercise: Same thing, different compound: C=CC(=O)N1CCN(c2nc(OC[C@@H]3CCCN3C)nc3c2CN(C(=O)Nc2cccc4ccccc24)C3)C[C@@H]1CC#N [Example 38]
Key: 1570

Exercise: Same thing, different compound: C=CC(=O)N1CCN(c2nc(OC[C@@H]3CCCN3C)nc3c2CN(C(=O)c2c(O)cccc2F)C3)C[C@@H]1CC#N [Example 36]
Key: 238

Exercise: Same thing, different compound: C=CC(=O)N1CCN(c2nc(OC[C@@H]3CCCN3C)nc3c2CN(C(=O)c2c(C)ccc4[nH]ncc24)C3)C[C@@H]1CC#N [Example 31]
Key: 301

* * *

# Target or test system: KRAS (aa 1-169) G12C, C51S, C80L, C118S (Homo sapiens, UniProt P01116, C118S/C51S/C80L/G12C)
# Construct: The KRAS (aa 1-169) G12C, C51S, C80L, C118S with a His-tag
# Assay text: KRAS G12C SOS1-mediated nucleotide exchange / GST-cRaf RBD binding FRET assay
# Condition label: GDP-loaded KRAS G12C pre-incubated with compound at 24° C. for 3 hrs; SOS1, GTPγS and GST-cRaf RBD added; FRET 665 nm/620 nm
# key: entry, value: pIC50
Lab note: report pIC50 as minus log10 of the concentration in molar units, number only.

Consider the reported pIC50 for these molecules:
{"Molecule": "C=CC(=O)N1CCN(c2nc(OC[C@@H]3CCCN3C)nc3c2CN(C(=O)c2cc(O)cc4ccccc24)C3)C[C@@H]1CC#N", "Measured result": 8.62}
{"Molecule": "C=CC(=O)N1CCN(c2nc(OC[C@@H]3CCCN3C)nc3c2CN(C(=O)c2cc(O)ccc2C)C3)C[C@@H]1CC#N", "Measured result": 6.99}
{"Molecule": "C=CC(=O)N1CCN(c2nc(OC[C@@H]3CCCN3C)nc3c2CN(Cc2cccc4c2CCO4)C3)C[C@@H]1CC#N", "Measured result": 7.03}
{"Molecule": "C=CC(=O)N1CCN(c2nc(OC[C@@H]3CCCN3C)nc3c2CN(c2cccc4cccc(C)c24)C3)C[C@@H]1CC#N", "Measured result": 6.75}
{"Molecule": "C=CC(=O)N1CCN(c2nc(OC[C@@H]3CCCN3C)nc3c2CN(Cc2cccc4cccc(Cl)c24)C3)C[C@@H]1CC#N", "Measured result": 6.58}

The record that follows has no pIC50 shown yet.
Exercise: Returns the measured pIC50 for the input molecule. Input: C=CC(=O)N1CCN(c2nc(OCC3CCCN3C)nc3c2CN(C2Cc4cccc5cccc2c45)C3)CC1CC#N (single isomer, unassigned) [Example 15 (P2)]
Key: 8.28
